Biological target: human PAH with the R408W mutation (Homo sapiens, UniProt P00439, R408W)
Construct: expressed in transfected cells
Sequence (P00439 whole entry R408W): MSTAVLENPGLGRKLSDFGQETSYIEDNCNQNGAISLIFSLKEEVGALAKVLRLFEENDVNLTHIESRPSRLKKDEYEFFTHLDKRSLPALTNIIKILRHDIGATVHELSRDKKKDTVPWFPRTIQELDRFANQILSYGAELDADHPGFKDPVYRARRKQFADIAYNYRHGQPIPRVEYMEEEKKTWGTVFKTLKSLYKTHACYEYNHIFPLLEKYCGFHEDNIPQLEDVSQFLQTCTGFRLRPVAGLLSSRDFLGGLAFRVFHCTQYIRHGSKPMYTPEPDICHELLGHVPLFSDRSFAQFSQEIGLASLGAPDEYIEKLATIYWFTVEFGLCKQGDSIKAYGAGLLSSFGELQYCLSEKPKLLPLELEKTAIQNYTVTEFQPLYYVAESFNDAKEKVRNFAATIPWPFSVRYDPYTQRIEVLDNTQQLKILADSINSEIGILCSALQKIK
Test: Cell Based Phenylalanine Flux Assay
Conditions: A375 cells expressing human R408W PAH; 24 hrs compound incubation; 13C-Tyrosine by LC-MS; average where tested multiple times; read-out: AC50
Below is a list of entries, each paired with its recorded AC50 value.

Examples from the recorded data:
# compound, assay system, AC50
rows = [
    ("CC(C)(O)c1nc(C(F)(F)F)c(C(=O)N2CC3(CC3)c3[nH]cnc3[C@@H]2c2nc3ccccc3s2)o1", "human PAH with the R408W mutation (Homo sapiens, UniProt P00439, R408W)", "1000 to 5000 nM"),
    ("Cc1nc(C2CC2)oc1C(=O)N1CCc2[nH]cnc2[C@@H]1c1nc2c(F)cccc2s1", "human PAH with the R408W mutation (Homo sapiens, UniProt P00439, R408W)", "1000 to 5000 nM"),
    ("O=C(CCc1nccs1)N1CCc2[nH]cnc2[C@@H]1c1nc2ccc(F)cc2s1", "human PAH with the R408W mutation (Homo sapiens, UniProt P00439, R408W)", "> 5000 nM"),
]

In: State, for human PAH with the R408W mutation (Homo sapiens, UniProt P00439, R408W), measured AC50 of the compound listed here: O=C(c1nnc(-c2cnn(CC(F)F)c2)o1)N1CCc2[nH]cnc2[C@H]1c1nc2c(F)cccc2s1
Out: < 500 nM

In: State, for human PAH with the R408W mutation (Homo sapiens, UniProt P00439, R408W), measured AC50 of the compound listed here: CCc1ccc2c(C(=O)N3CCc4[nH]cnc4[C@@H]3c3nc4ccccc4s3)cnn2c1
Out: > 5000 nM

In: State, for human PAH with the R408W mutation (Homo sapiens, UniProt P00439, R408W), measured AC50 of the compound listed here: O=C(c1ocnc1-c1ccccc1)N1CCc2[nH]cnc2[C@H]1c1nc2ccccc2s1
Out: 500 to 1000 nM

In: State, for human PAH with the R408W mutation (Homo sapiens, UniProt P00439, R408W), measured AC50 of the compound listed here: O=C(c1cnn(CC(F)F)c1Cl)N1CCc2[nH]cnc2[C@H]1c1nc2c(F)cccc2s1
Out: < 500 nM
